Test system: 435261-313-R-J1-PDC tumor spheroid viability
Experiment: Anticancer human tumor 435261-313-R-J1-PDC patient-derived colon adenocarcinoma cell line growth inhibition [PI3K]
Conditions: second compound 1 µM; first compound 0.001 µM; active compounds read low; spheroids with HUVEC and MSC
Decision: viability, T/C beneath 30% gives y; viability, T/C meeting or exceeding 30% gives n.

{"molecule": "CC(=O)c1c(C)c2cnc(Nc3ccc(N4CCNCC4)cn3)nc2n(C2CCCC2)c1=O + CC(Nc1ncnc2nc[nH]c12)c1cc2cccc(Cl)c2c(=O)n1-c1ccccc1", "assigned category": "n"}
{"molecule": "CC(C)n1nc(-c2ccc3oc(N)nc3c2)c2c(N)ncnc21 + COc1c(OCCCN2CCOCC2)ccc2c3n(c(=NC(=O)c4cnc(N)nc4)nc12)CCN3", "assigned category": "y"}
{"molecule": "Cn1ncnc1[C@H]1c2n[nH]c(=O)c3cc(F)cc(c23)N[C@@H]1c1ccc(F)cc1 + COc1c(OCCCN2CCOCC2)ccc2c3n(c(=NC(=O)c4cnc(N)nc4)nc12)CCN3", "assigned category": "y"}
{"molecule": "CC(=O)c1c(C)c2cnc(Nc3ccc(N4CCNCC4)cn3)nc2n(C2CCCC2)c1=O + CC(Nc1ccc2c(c1)OCCn1cc(N3C(=O)OCC3C(F)F)nc1-2)C(N)=O", "assigned category": "y"}
{"molecule": "Cn1ncnc1[C@H]1c2n[nH]c(=O)c3cc(F)cc(c23)N[C@@H]1c1ccc(F)cc1 + CC(Nc1ncnc2nc[nH]c12)c1cc2cccc(Cl)c2c(=O)n1-c1ccccc1", "assigned category": "n"}

###

Reported viability, T/C values are given for each entry in this list.
Test system: 435261-313-R-J1-PDC tumor spheroid viability
Test: Anticancer human tumor 435261-313-R-J1-PDC cell line growth inhibition [PI3K];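 note: spheroids exposed to compounds for 7 days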
Conditions: second compound 0.316 µM; first compound 3.16 µM; active compounds read low; spheroids with HUVEC and MSC
measured quantity: viability, T/C (%)

{"compound": "Cn1nccc1Nc1nccc(-c2ccn(C(CO)c3ccc(Cl)c(F)c3)c(=O)c2)n1 (stereo unspecified) + CC(Nc1ccc2c(c1)OCCn1cc(N3C(=O)OCC3C(F)F)nc1-2)C(N)=O", "endpoint value": 5.78}
{"compound": "CC1(C)CCC(Nc2ncc(C(F)(F)F)c(-c3c[nH]c4c(P(C)(C)=O)c(C#N)ccc34)n2)CN1 (stereo unspecified) + CC(Nc1ncnc2nc[nH]c12)c1cc2cccc(Cl)c2c(=O)n1-c1ccccc1", "endpoint value": 43.5}
{"compound": "C#Cc1c(F)ccc2cc(O)cc(-c3ncc4c(N5CC6CCC(C5)N6)nc(OCC56CCCN5CC(F)C6)nc4c3F)c12 (stereo unspecified) + CC(Nc1ccc2c(c1)OCCn1cc(N3C(=O)OCC3C(F)F)nc1-2)C(N)=O", "endpoint value": 15.1}
{"compound": "CC(C)NCC(C(=O)N1CCN(c2ncnc3c2C(C)CC3O)CC1)c1ccc(Cl)cc1 (stereo unspecified) + CC(Nc1ccc2c(c1)OCCn1cc(N3C(=O)OCC3C(F)F)nc1-2)C(N)=O", "endpoint value": 19}
{"compound": "Cn1ncc(Cl)c1-c1cc(C(=O)NC(CN)Cc2cccc(F)c2)sc1Cl (stereo unspecified) + CC(Nc1ncnc2nc[nH]c12)c1cc2cccc(Cl)c2c(=O)n1-c1ccccc1", "endpoint value": 22.5}
{"compound": "C=CC(=O)N1CCN(c2nc(=O)n(-c3c(C)ccnc3C(C)C)c3nc(-c4c(O)cccc4F)c(F)cc23)C(C)C1 (stereo unspecified) + Cc1nc(NC(=O)N2CCCC2C(N)=O)sc1-c1ccnc(C(C)(C)C(F)(F)F)c1", "endpoint value": 77.1}
{"compound": "C#Cc1c(F)ccc2cc(O)cc(-c3ncc4c(N5CC6CCC(C5)N6)nc(OCC56CCCN5CC(F)C6)nc4c3F)c12 (stereo unspecified) + CC(Nc1ncnc2nc[nH]c12)c1cc2cccc(Cl)c2c(=O)n1-c1ccccc1", "endpoint value": 103}
{"compound": "C[C@@H](NC(=O)c1ncnc(N)c1Cl)c1ncc(C(=O)Nc2cc(C(F)(F)F)c(Cl)cn2)s1 + COc1c(OCCCN2CCOCC2)ccc2c3n(c(=NC(=O)c4cnc(N)nc4)nc12)CCN3", "endpoint value": 10.5}
{"compound": "Cn1ncc(Cl)c1-c1cc(C(=O)NC(CN)Cc2cccc(F)c2)sc1Cl (stereo unspecified) + Cc1nc(NC(=O)N2CCCC2C(N)=O)sc1-c1ccnc(C(C)(C)C(F)(F)F)c1", "endpoint value": 14.2}
{"compound": "CC1(C)CCC(CN2CCN(c3ccc(C(=O)NS(=O)(=O)c4ccc(NCC5CCOCC5)c([N+](=O)[O-])c4)c(Oc4cnc5[nH]ccc5c4)c3)CC2)=C(c2ccc(Cl)cc2)C1 + CC(Nc1ccc2c(c1)OCCn1cc(N3C(=O)OCC3C(F)F)nc1-2)C(N)=O", "endpoint value": 26.2}
{"compound": "CC1(C)CCC(Nc2ncc(C(F)(F)F)c(-c3c[nH]c4c(P(C)(C)=O)c(C#N)ccc34)n2)CN1 (stereo unspecified) + COc1c(OCCCN2CCOCC2)ccc2c3n(c(=NC(=O)c4cnc(N)nc4)nc12)CCN3", "endpoint value": 2.4}

Each recorded value in this set is attributed to PubChem BioAssay AID1963976.
